Data provenance: patent US20230183352A1

We begin with a simple list: items and their reported kon.
Measured target: T1, PD-L1 Protein, Human, Recombinant (His Tag) (human, UniProt Q9NZQ7 19-239)
T1 construct: Bought protein; also called QPP09.1; SinoBiologic 10084-H08H
T1 sequence (Q9NZQ7 19-239 limits assumed): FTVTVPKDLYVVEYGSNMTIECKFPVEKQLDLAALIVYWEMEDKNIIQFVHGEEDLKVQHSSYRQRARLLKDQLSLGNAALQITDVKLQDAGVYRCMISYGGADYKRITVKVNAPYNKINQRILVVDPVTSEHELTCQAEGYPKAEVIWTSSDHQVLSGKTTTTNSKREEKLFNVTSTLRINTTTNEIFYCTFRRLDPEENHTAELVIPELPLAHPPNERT
Measurement notes: SPR Biacore T200, antibody captured, PD-L1 His as analyte, 1:1 binding
Kindly provide the numeric value in M⁻¹ s⁻¹ only, without the unit symbol.

QP322 (Fc fusion, Humanization design of QP1162; VHH at the N-terminal of FC; also called 1162-V3; QD322; not shown: human IgG1-FC constant region fused to the C terminal of the VHH) EVQLLESGGGLVQPGGSLRLSCAASGFTYGTYAMSWFRQAPGKGREGVACIDIYGRASYTDPVKGRFTISQDNSKNTLYLQMNSLKAEDTAVYYCAARDFGYCTASWVHEGFSRYWGQGTLVTVSS    1.31e+06
QP1162 (Fc fusion, Chimeric antibody before humanization; also called QD1162; nanobody QP1162; not shown: Fc part: called chimeric antibody, cloned in vector VH-FC-pQD) QVQLVESGGGSVQSGGSLRLSCAASGFTYGTYAMSWFRQAPGKEREGVACIDIYGRASYTDPVKGRFTISQDNAKNTLYLQMNSLKPEDTAMYYCAARDFGYCTASWVHEGFSRYWGQGTQVTVSS    1.37e+06
QP1166 (Fc fusion, Chimeric antibody before humanization; also called QD1166; nanobody QP1166; not shown: Fc part: called chimeric antibody, cloned in vector VH-FC-pQD) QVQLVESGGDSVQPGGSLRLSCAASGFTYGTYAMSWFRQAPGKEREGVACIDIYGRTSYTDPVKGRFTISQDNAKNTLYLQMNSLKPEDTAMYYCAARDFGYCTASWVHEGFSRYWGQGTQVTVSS    968000

Query string: What measured kon goes with QP325 (Fc fusion, Humanization design of QP1166; VHH-Fc; also called 1166-V3; QD325; not shown: human IgG1-FC constant region fused to the C terminal of the VHH) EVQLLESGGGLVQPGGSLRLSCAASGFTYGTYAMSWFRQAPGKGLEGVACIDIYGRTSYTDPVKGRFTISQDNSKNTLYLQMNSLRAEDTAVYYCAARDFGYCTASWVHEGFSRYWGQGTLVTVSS ?
Result string: 375000
